# SYSTEM: KIT wt (Homo sapiens, UniProt P10721)
# Sequence (P10721 26-976): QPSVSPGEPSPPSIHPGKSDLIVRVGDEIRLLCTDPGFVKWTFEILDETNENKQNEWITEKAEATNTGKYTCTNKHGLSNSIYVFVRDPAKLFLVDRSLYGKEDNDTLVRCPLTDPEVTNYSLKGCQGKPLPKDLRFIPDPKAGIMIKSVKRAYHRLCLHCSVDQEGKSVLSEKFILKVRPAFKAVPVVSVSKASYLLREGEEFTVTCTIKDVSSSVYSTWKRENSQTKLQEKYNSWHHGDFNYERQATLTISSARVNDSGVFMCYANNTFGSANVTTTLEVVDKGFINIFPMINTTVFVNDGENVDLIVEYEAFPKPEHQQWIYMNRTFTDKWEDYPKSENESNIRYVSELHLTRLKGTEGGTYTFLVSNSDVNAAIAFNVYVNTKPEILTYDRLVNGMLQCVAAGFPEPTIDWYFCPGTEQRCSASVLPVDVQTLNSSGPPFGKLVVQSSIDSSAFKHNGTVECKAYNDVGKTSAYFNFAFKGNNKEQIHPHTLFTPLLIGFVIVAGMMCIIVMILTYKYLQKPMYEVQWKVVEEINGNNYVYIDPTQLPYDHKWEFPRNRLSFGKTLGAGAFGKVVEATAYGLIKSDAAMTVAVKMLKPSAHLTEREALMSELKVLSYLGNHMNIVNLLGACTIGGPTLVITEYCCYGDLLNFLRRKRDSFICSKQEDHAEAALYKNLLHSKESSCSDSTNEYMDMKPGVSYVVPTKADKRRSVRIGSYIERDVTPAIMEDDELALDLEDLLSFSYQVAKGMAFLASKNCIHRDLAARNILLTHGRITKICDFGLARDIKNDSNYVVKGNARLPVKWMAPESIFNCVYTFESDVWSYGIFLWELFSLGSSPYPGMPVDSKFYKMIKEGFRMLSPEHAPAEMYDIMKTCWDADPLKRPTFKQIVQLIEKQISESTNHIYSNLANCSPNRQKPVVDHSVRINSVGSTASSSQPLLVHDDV
# ASSAY NAME: KIT auto-phosphorylation in parental Colo320DM cells
# Format: cell-based
# Parameters: Colo320DM cells which express wt KIT kinase; endogenous in cells; host or cells: Colo320DM, SCF-stimulated
# EXPERIMENTAL CONTEXT: in cell, KIT wt; read-out: EC50 pY703
OBSERVABLE: EC50 (nM)
Return type: number; implicit unit nM.

# EC50 measured on KIT wt (Homo sapiens, UniProt P10721) for item COc1cc(C(=O)NCC(=O)Nc2ccc3c(/C=C/c4ccccn4)n[nH]c3c2)cc(OC)c1OC [CHMFL-KIT-031] = 2000

====

# SYSTEM: KIT L576p (Homo sapiens, UniProt P10721, L576P)
# Sequence (P10721 26-976 L576P): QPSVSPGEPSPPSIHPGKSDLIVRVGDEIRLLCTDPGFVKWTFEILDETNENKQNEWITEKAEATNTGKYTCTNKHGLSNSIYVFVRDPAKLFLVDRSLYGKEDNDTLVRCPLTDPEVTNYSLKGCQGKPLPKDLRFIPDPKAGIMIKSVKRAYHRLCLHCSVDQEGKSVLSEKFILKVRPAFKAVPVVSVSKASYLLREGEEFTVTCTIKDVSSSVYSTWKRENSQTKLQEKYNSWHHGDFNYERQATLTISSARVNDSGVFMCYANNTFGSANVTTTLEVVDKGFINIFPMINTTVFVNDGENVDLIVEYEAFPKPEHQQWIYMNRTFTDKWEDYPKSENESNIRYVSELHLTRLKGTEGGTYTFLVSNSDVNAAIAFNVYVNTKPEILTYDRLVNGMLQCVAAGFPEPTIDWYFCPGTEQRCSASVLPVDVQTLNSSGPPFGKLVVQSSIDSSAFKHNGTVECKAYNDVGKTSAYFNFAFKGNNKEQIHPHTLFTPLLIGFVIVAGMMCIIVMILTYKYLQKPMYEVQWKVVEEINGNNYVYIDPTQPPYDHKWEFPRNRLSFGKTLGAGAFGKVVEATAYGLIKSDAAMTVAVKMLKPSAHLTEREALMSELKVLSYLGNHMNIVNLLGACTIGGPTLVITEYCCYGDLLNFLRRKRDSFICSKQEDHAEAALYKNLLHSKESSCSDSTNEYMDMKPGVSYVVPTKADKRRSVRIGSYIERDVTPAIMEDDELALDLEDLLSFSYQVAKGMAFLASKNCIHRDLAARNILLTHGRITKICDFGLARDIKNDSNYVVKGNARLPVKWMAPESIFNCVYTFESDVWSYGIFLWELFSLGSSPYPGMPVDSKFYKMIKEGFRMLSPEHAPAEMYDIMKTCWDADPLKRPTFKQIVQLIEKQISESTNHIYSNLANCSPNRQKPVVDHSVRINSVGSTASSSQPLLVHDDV
# ASSAY NAME: KIT auto-phosphorylation in transformed BaF3 cells
# EXPERIMENTAL CONTEXT: EC50 pY823 auto-phosphorylation, 2h
OBSERVABLE: pEC50
pEC50 here: minus log base 10 of the concentration, concentration in moles per litre.

Noted for COc1cc(C(=O)NCC(=O)Nc2ccc3c(/C=C/c4ccccn4)n[nH]c3c2)cc(OC)c1OC : its pEC50 reads 5.72

====

# SYSTEM: KIT A829P (Homo sapiens, UniProt P10721, A829P)
# Sequence (P10721 26-976 A829P): as the sequence (P10721 26-976) above, with A804P counted along it
# ASSAY NAME: KIT auto-phosphorylation in transformed BaF3 cells
# EXPERIMENTAL CONTEXT: read-out: EC50 pY823 auto-phosphorylation; KIT A829P transformed BaF3 cells, 2h
OBSERVABLE: EC50

Noted for COc1cc(C(=O)NCC(=O)Nc2ccc3c(/C=C/c4ccccn4)n[nH]c3c2)cc(OC)c1OC : its EC50 reads > 10 µM

====

# SYSTEM: KIT A829P (Homo sapiens, UniProt P10721, A829P)
# ASSAY NAME: KIT auto-phosphorylation in transformed BaF3 cells
pEC50: −log10 of the molar value.
OBSERVABLE: pEC50

# pEC50 measured on KIT A829P (Homo sapiens, UniProt P10721, A829P) for item COc1cc(C(=O)NCC(=O)Nc2ccc3c(/C=C/c4ccccn4)n[nH]c3c2)cc(OC)c1OC = < 5.00

====

# SYSTEM: KIT A829P (Homo sapiens, UniProt P10721, A829P)
# ASSAY NAME: KIT auto-phosphorylation in transformed BaF3 cells
# EXPERIMENTAL CONTEXT: read-out: EC50 pY719 auto-phosphorylation; KIT A829P transformed BaF3 cells, 2h
pEC50: −log10 of the molar value.
OBSERVABLE: pEC50

# pEC50 measured on KIT A829P (Homo sapiens, UniProt P10721, A829P) for item COc1cc(C(=O)NCC(=O)Nc2ccc3c(/C=C/c4ccccn4)n[nH]c3c2)cc(OC)c1OC = < 5.00

====

# SYSTEM: KIT N822K (Homo sapiens, UniProt P10721, N822K)
# Sequence (P10721 26-976 N822K): as the sequence (P10721 26-976) above, with N797K counted along it
# ASSAY NAME: KIT auto-phosphorylation in transformed BaF3 cells
# EXPERIMENTAL CONTEXT: read-out: EC50 pY719 auto-phosphorylation; KIT N822K transformed BaF3 cells, 2h
pEC50: −log10 of the molar value.
OBSERVABLE: pEC50

Noted for COc1cc(C(=O)NCC(=O)Nc2ccc3c(/C=C/c4ccccn4)n[nH]c3c2)cc(OC)c1OC : its pEC50 reads < 5.00

====

# SYSTEM: KIT L576p (Homo sapiens, UniProt P10721, L576P)
# ASSAY NAME: KIT auto-phosphorylation in transformed BaF3 cells
# EXPERIMENTAL CONTEXT: EC50 pY719 auto-phosphorylation, 2h
OBSERVABLE: EC50 (µM)
Return type: number; implicit unit µM.

Noted for COc1cc(C(=O)NCC(=O)Nc2ccc3c(/C=C/c4ccccn4)n[nH]c3c2)cc(OC)c1OC : its EC50 reads 5.9

====

# SYSTEM: KIT V654A (Homo sapiens, UniProt P10721, V654A)
# Sequence (P10721 546-976 V654A): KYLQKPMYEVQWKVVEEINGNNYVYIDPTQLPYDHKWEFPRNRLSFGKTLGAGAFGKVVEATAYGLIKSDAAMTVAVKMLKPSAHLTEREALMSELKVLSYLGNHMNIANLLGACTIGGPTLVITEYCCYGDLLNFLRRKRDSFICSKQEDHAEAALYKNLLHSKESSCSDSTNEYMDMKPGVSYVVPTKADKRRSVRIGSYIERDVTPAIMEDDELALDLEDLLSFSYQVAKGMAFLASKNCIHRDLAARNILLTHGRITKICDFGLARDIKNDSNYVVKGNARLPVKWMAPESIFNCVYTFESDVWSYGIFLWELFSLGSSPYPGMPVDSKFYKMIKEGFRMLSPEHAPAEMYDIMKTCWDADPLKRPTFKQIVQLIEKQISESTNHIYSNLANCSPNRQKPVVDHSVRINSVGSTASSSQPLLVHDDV
# ASSAY NAME: KIT auto-phosphorylation in transformed BaF3 cells
# EXPERIMENTAL CONTEXT: EC50 pY703 auto-phosphorylation, 2h
OBSERVABLE: EC50 (nM)
Return type: number; implicit unit nM.

Noted for COc1cc(C(=O)NCC(=O)Nc2ccc3c(/C=C/c4ccccn4)n[nH]c3c2)cc(OC)c1OC [CHMFL-KIT-031] : its EC50 reads 508

====

# SYSTEM: KIT T670I/V559D (Homo sapiens, UniProt P10721, T670I/V559D)
# Sequence (P10721 26-976 V559D/T670I): as the sequence (P10721 26-976 L576P) above, with V534D, P551L, T645I counted along it
# ASSAY NAME: KIT auto-phosphorylation in transformed BaF3 cells
# EXPERIMENTAL CONTEXT: read-out: EC50 pY823 auto-phosphorylation; KIT T670I/V559D transformed BaF3 cells, 2h
pEC50: −log10 of the molar value.
OBSERVABLE: pEC50

Noted for COc1cc(C(=O)NCC(=O)Nc2ccc3c(/C=C/c4ccccn4)n[nH]c3c2)cc(OC)c1OC : its pEC50 reads < 5.00

====

# SYSTEM: KIT N822K (Homo sapiens, UniProt P10721, N822K)
# ASSAY NAME: KIT auto-phosphorylation in transformed BaF3 cells
# EXPERIMENTAL CONTEXT: read-out: EC50 pY823 auto-phosphorylation; KIT N822K transformed BaF3 cells, 2h
pEC50: −log10 of the molar value.
OBSERVABLE: pEC50

Noted for COc1cc(C(=O)NCC(=O)Nc2ccc3c(/C=C/c4ccccn4)n[nH]c3c2)cc(OC)c1OC : its pEC50 reads < 5.00

====

# SYSTEM: KIT V559D (Homo sapiens, UniProt P10721, V559D)
# ASSAY NAME: KIT auto-phosphorylation in KIT V559D overexpressed Colo320DM cells
# Assay type: cell-based
# Design: expressed in transfected cells; host or cells: Colo320DM (transient)
# EXPERIMENTAL CONTEXT: COLO 320DM-KIT-V559D; read-out: EC50 P-CKIT Y823
# Text: In order to better define CHMFL-KIT-031’s inhibitory effect against KIT V559D mutant, we then tested it with purified KIT wt/V559D kinase protein by ADP-Glo assay (Figure 2A). […] We also transformed and overexpressed KIT V559D transiently into Colo320DM cells which express wt KIT kinase and tested CHMFL-KIT-031’s inhibitory effects for the auto-phosphorylation of KIT Y703, 719 and Y823 sites. […]
# Sequence (P10721 546-976 V559D limits assumed): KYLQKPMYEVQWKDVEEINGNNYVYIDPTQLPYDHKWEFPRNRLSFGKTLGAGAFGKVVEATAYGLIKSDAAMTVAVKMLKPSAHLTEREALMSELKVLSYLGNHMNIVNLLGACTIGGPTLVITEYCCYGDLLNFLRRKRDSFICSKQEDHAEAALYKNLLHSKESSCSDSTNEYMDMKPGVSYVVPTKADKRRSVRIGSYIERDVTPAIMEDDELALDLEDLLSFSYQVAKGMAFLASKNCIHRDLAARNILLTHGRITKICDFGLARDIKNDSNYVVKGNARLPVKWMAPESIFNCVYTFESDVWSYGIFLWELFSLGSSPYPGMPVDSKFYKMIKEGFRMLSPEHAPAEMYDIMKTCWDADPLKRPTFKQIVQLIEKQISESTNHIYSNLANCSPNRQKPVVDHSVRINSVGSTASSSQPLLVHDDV
OBSERVABLE: EC50 (nM)
Return type: number; implicit unit nM.

Noted for COc1cc(C(=O)NCC(=O)Nc2ccc3c(/C=C/c4ccccn4)n[nH]c3c2)cc(OC)c1OC : its EC50 reads 147

====

# SYSTEM: KIT T670I/V559D (Homo sapiens, UniProt P10721, T670I/V559D)
# ASSAY NAME: KIT auto-phosphorylation in transformed BaF3 cells
OBSERVABLE: EC50

Noted for COc1cc(C(=O)NCC(=O)Nc2ccc3c(/C=C/c4ccccn4)n[nH]c3c2)cc(OC)c1OC [CHMFL-KIT-031] : its EC50 reads > 10 µM

====

# SYSTEM: KIT V559D (Homo sapiens, UniProt P10721, V559D)
# ASSAY NAME: KIT auto-phosphorylation in KIT V559D overexpressed Colo320DM cells
# Format: cell-based
# Design: expressed in transfected cells; host or cells: Colo320DM (transient)
# EXPERIMENTAL CONTEXT: in cell, KIT V559D; read-out: EC50 pY703
OBSERVABLE: EC50
Please answer using a numeric value trailed by its unit.

Noted for COc1cc(C(=O)NCC(=O)Nc2ccc3c(/C=C/c4ccccn4)n[nH]c3c2)cc(OC)c1OC [CHMFL-KIT-031] : its EC50 reads 176 nM

====

# SYSTEM: KIT T670I (Homo sapiens, UniProt P10721, T670I)
# Sequence (P10721 26-976 T670I): as the sequence (P10721 26-976 L576P) above, with P551L, T645I counted along it
# ASSAY NAME: KIT auto-phosphorylation in transformed BaF3 cells
# EXPERIMENTAL CONTEXT: EC50 pY703 auto-phosphorylation, 2h
OBSERVABLE: EC50

Noted for COc1cc(C(=O)NCC(=O)Nc2ccc3c(/C=C/c4ccccn4)n[nH]c3c2)cc(OC)c1OC [CHMFL-KIT-031] : its EC50 reads > 10 µM

====

# SYSTEM: KIT T670I (Homo sapiens, UniProt P10721, T670I)
# ASSAY NAME: KIT auto-phosphorylation in transformed BaF3 cells
# EXPERIMENTAL CONTEXT: EC50 pY823 auto-phosphorylation, 2h
OBSERVABLE: EC50 (µM)
Return type: number; implicit unit µM.

Noted for COc1cc(C(=O)NCC(=O)Nc2ccc3c(/C=C/c4ccccn4)n[nH]c3c2)cc(OC)c1OC : its EC50 reads 1.1

====

# SYSTEM: KIT V559D (Homo sapiens, UniProt P10721, V559D)
# ASSAY NAME: KIT auto-phosphorylation in transformed BaF3 cells
# EXPERIMENTAL CONTEXT: EC50 pY719 auto-phosphorylation, 2h
# Sequence (P10721 546-976 V559D): as the sequence (P10721 546-976 V559D limits assumed) above
OBSERVABLE: pEC50
pEC50 here: minus log base 10 of the concentration, concentration in moles per litre.

# pEC50 measured on KIT V559D (Homo sapiens, UniProt P10721, V559D) for item COc1cc(C(=O)NCC(=O)Nc2ccc3c(/C=C/c4ccccn4)n[nH]c3c2)cc(OC)c1OC = 6.86
